- Tested on: Plutella xylostella eggs
- protocol_description: whole plant or invertebrate
- Assay type: in vivo
- condition_info: in vivo
Pref pLD50 values for the compounds below.

[
  {
    "compound": "CC(=O)C1CCCCC1=O (stereo not drawn)",
    "Pref pLD50": "<2"
  },
  {
    "compound": "O=C(CC(=O)c1cccnc1)c1cccnc1",
    "Pref pLD50": "<2"
  },
  {
    "compound": "CC(=O)NO [Acetohydroxamic acid]",
    "Pref pLD50": "<2"
  },
  {
    "compound": "COc1ccc(C(=O)CC(=O)c2ccc(OC)cc2)cc1",
    "Pref pLD50": "<2"
  },
  {
    "compound": "c1ccc(-c2ccc3ccccc3n2)nc1",
    "Pref pLD50": ">2"
  },
  {
    "compound": "Cc1cc(C)cc(C(=O)CC(=O)c2cc(C)cc(C)c2)c1",
    "Pref pLD50": "<2"
  },
  {
    "compound": "COC(=O)CN",
    "Pref pLD50": "<2"
  },
  {
    "compound": "CCCC(N)CO (stereo not drawn)",
    "Pref pLD50": "<2"
  },
  {
    "compound": "CC(C)(C)c1ccc(C(=O)CC(=O)c2ccc(C(C)(C)C)cc2)cc1",
    "Pref pLD50": "<2"
  }
]

* * *

- Tested on: Plutella xylostella eggs
- protocol_description: whole plant or invertebrate
- Format: in vivo
- condition_info: in vivo
Logit calc pLD50 values for the compounds below.

[
  {
    "compound": "COc1ccc(C(=O)CC(=O)c2ccc(OC)cc2)cc1",
    "Logit calc pLD50": 0.7
  },
  {
    "compound": "Cc1cc(C)cc(C(=O)CC(=O)c2cc(C)cc(C)c2)c1",
    "Logit calc pLD50": 0.7
  },
  {
    "compound": "c1ccc(-c2ccc3ccccc3n2)nc1 [2-(2-pyridinyl)quinoline]",
    "Logit calc pLD50": 3.3
  },
  {
    "compound": "O=C(CC(=O)c1cccnc1)c1cccnc1 [1,3-dipyridin-3-yl-propane-1,3-dione]",
    "Logit calc pLD50": 0.7
  },
  {
    "compound": "CC(=O)NO [Acetohydroxamic acid]",
    "Logit calc pLD50": 0.7
  },
  {
    "compound": "COC(=O)CN [Glycine methyl ester]",
    "Logit calc pLD50": 0.7
  },
  {
    "compound": "CC(=O)C1CCCCC1=O (stereo not drawn) [2-Acetylcyclohexanone]",
    "Logit calc pLD50": 0.7
  },
  {
    "compound": "CC(C)(C)c1ccc(C(=O)CC(=O)c2ccc(C(C)(C)C)cc2)cc1",
    "Logit calc pLD50": 0.7
  },
  {
    "compound": "CCCC(N)CO [D-L-2-Amino-1-pentanol]",
    "Logit calc pLD50": 0.7
  }
]

* * *

- System: Plutella xylostella eggs
- protocol_description: whole plant or invertebrate
- Type: in vivo
- condition_info: Plutella (P); 10 mM

[
  {
    "compound": "O=C(NO)c1ccccc1 [Benzohydroxaminic acid]",
    "experimental_target": "Plutella xylostella eggs",
    "Ovicidal activity %": "0.00%"
  },
  {
    "compound": "c1ccc(Nc2ccccn2)nc1",
    "experimental_target": "Plutella xylostella eggs",
    "Ovicidal activity %": "100%"
  },
  {
    "compound": "Cc1ccnc(-c2cc(C)ccn2)c1",
    "experimental_target": "Plutella xylostella eggs",
    "Ovicidal activity %": "100.00%"
  },
  {
    "compound": "CCCC(N)CO (centres unmarked)",
    "experimental_target": "Plutella xylostella eggs",
    "Ovicidal activity %": "0.00%"
  },
  {
    "compound": "CCOC(=O)CNC(C)=O [Ethyl-acetaimidoacetate]",
    "experimental_target": "Plutella xylostella eggs",
    "Ovicidal activity %": "0.00%"
  }
]
